# target.entity: Luciferin 4-monooxygenase (Photinus pyralis) (UniProt P08659)
# Sequence (P08659 whole entry, looked up): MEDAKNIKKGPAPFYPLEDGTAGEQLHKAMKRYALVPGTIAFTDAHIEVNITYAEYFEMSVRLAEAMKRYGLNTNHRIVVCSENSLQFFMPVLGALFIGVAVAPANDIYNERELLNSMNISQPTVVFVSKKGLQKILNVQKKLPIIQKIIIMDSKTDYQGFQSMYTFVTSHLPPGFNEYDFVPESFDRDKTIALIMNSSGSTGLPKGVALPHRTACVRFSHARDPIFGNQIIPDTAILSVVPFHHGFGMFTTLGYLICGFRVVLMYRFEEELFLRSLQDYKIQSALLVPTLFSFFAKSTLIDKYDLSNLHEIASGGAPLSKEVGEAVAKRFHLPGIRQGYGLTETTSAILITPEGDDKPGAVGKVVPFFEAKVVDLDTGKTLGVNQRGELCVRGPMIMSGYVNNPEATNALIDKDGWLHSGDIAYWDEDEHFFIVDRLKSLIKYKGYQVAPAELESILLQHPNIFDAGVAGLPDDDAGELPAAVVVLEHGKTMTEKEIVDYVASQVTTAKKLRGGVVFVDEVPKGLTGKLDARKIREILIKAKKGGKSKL
# assay.notes: firefly luciferase enzyme inhibitors, primary screen, biochemical, luminescence, purified enzyme, 2006 set (AID 1141);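 note: cell-free assay with purified firefly luciferase at 100 ng per well in PBS; test concentration not given here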
# stated.conditions: SteadyGlo luminescence, 30 min, higher = more signal, called active from +8 up or from −8 down
outcome.measure: z-score
The answer should be written as a number, with no unit following it.

Please report the measured z-score for "O=C1C[C@]2(c3ccc([N+](=O)[O-])cc3)C(=O)N(CCN3CCOCC3)c3cc(CO)ccc3[C@H]2N1CC12CC3CC(CC(C3)C1)C2" 0.959

Please report the measured z-score for "CCOC(=O)NN=C1C[C@@H](O)[C@@H](O)[C@@H]2[C@@H]3C(=O)N(C4CCCCC4)C(=O)[C@@H]3CC[C@@H]12" -0.182

Please report the measured z-score for "CCOC(=O)CCN1C(=O)[C@H]2[C@H]3[C@H](O)C=CC(=O)[C@@H]3CC[C@H]2C1=O" -0.371

Please report the measured z-score for "C#C[C@@H](CC)O[Si](C#Cc1ccc(Oc2ccccc2)cc1)(C(C)C)C(C)C" 0.0007

Please report the measured z-score for "COc1ccc(O[C@H]2C=C[C@@H](c3ccccc3)O[C@@H]2CON=C[C@@H](C)[C@H](OCc2ccccc2)C(C)C)cc1" 0.0017

Please report the measured z-score for "C[C@@H](c1ccccc1)N1C(=O)[C@H]2[C@H]3[C@H](O)[C@H](O)CC(=NNC(=O)OCc4ccccc4)[C@H]3CC[C@H]2C1=O" 0.502

Please report the measured z-score for "CC(C)C[C@@H]1NC(=O)[C@H]2C[C@@H](C(=O)O)[C@@H](c3ccc(O)cc3)N2C1=O" -1.2

Please report the measured z-score for "CCCC[C@@H](O)C1=C(C)C[C@H]2C(=O)N(Cc3ccccc3)C(=O)[C@H]2[C@H]1CO" -0.467

Please report the measured z-score for "CC(C)(C)N1C(=O)[C@H]2[C@H]3[C@H](O)[C@H](O)CC(=NO[C@@H]4O[C@H](CO)[C@@H](O)[C@H](O)[C@H]4O)[C@@H]3CC[C@H]2C1=O" 0.0997

Please report the measured z-score for COC(=O)[C@H](C)NC(=O)CCC1CC(OC(=O)NCc2cccc3ccccc23)CC2(CCCC(COC(=O)NCCc3ccc(Cl)cc3)O2)O1 (stereo not given in full) 0.632

Please report the measured z-score for COC(=O)[C@H](C)NC(=O)CCC1CC(OC(=O)NCCc2ccc(F)cc2)CC2(CCCC(COC(=O)NCC(c3ccccc3)c3ccccc3)O2)O1 (stereo not given in full) 0.467

Please report the measured z-score for "CN1C(=O)[C@@]2(CCC(=O)OC(C)(C)C)N=C(c3ccc(OCCCO)cc3)O[C@H]2c2ccccc21" -2.62

Please report the measured z-score for "COc1ccc([Si](C)(C)[C@H]2[C@H](CCO)O[C@@]3(C(=O)N(Cc4cccc(NC(=O)[C@H](C)O)c4)c4ccccc43)[C@@H]2C)cc1" -0.208

Please report the measured z-score for "C=C(CCCC)C(=O)CC[C@@H](OC(C)=O)c1cccc(OCCO)c1" -0.879

Please report the measured z-score for "COCCOC(=O)N1C(=O)[C@@]2(c3cc(C#CCNC(N)=O)ccc31)[C@H](c1ccccc1OCCO)N1[C@H](c3ccccc3)[C@H](c3ccccc3)OC(=O)[C@H]1[C@@H]2C(=O)N1CCN(c2ncccn2)CC1" -1.9
